biological target: Spo11;Rec102;Rec104;Ski8 (Saccharomyces cerevisiae;Saccharomyces …, UniProt P23179;Q02721;P33323;Q02793 1-398;1-264;1-182;1-397, |||); experiment: EMSA
Sequence (P23179 whole entry, chain 1 of 4): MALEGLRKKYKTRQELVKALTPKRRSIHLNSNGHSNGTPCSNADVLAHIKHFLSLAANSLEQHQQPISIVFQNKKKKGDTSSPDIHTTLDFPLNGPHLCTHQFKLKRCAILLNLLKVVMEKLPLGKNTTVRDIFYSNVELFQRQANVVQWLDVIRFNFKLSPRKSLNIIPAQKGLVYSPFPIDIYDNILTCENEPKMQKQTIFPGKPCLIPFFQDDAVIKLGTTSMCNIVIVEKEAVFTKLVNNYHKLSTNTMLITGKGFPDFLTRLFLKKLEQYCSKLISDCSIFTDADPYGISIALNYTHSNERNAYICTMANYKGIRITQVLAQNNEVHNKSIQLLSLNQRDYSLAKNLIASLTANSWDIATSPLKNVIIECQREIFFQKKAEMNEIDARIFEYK
Sequence (Q02721 whole entry, chain 2 of 4): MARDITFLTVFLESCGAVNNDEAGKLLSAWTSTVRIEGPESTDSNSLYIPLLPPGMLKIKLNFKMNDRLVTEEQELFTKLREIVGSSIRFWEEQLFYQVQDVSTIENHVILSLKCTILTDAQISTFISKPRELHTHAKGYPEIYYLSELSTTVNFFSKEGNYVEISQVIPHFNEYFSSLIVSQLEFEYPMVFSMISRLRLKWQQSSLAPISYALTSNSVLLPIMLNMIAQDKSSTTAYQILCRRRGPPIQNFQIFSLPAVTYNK
Sequence (P33323 whole entry, chain 3 of 4): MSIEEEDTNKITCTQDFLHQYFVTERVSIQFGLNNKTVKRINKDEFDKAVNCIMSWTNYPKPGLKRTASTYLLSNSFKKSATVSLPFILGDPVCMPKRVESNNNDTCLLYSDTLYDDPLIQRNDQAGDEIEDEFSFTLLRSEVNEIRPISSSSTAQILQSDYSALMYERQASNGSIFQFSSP
Sequence (Q02793 whole entry, chain 4 of 4): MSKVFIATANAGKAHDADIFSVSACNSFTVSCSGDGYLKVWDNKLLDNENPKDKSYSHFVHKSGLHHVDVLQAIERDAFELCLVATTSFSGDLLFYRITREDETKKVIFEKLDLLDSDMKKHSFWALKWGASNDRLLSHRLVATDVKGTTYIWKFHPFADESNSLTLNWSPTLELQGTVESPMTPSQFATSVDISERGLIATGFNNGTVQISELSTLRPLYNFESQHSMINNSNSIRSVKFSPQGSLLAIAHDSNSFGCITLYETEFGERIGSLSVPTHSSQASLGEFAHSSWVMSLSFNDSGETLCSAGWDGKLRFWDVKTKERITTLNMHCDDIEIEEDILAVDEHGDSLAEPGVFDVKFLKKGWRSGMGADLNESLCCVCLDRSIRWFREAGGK
Parameter Measured: binding result

binder="32 bp (dsDNA) DNA 1: TAGCAATGTAATCGTCTATGACGTGATAGCGC DNA 2: TAGCGCTATCACGTCATAGACGATTACATTGC" parameter_measured="binding result" experimental_result=binds
binder="30 bp (dsDNA) DNA 1: TAGCAATGTAATCGTCTATGACGTTAGCGC DNA 2: TAGCGCTAACGTCATAGACGATTACATTGC" parameter_measured="binding result" experimental_result=binds
binder="33 bp (dsDNA) DNA 1: TAGCAATGTAATCGTCTATGACGTGCATAGCGC DNA 2: TAGCGCTATGCACGTCATAGACGATTACATTGC" parameter_measured="binding result" experimental_result=binds
